Give measured composite z-score for each item. Keep answers brief.
target: Concanavalin-A (Canavalia ensiformis); test: ConA small-molecule binders, primary screen, artefact control for SMM control protein annotation, biochemical, small-molecule microarray, Alexa647 label, 635 nm (AID 1127); details: ConA-A647 binding fluorescence, higher = more signal;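 also: z combines 667 nm emission intensity with signal-to-noise across three replicate slides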

Query: Input O=C1O[C@H](c2ccccc2)[C@H](c2ccccc2)N2[C@H]1[C@@H](C(=O)O)[C@]1(C(=O)Nc3ccc(C#CC4(O)CCCCCC4)cc31)[C@H]2c1ccc(OCCO)cc1 , output reported composite z-score.
Result: 1.06

Query: Input O=C1C[C@]2(c3ccc([N+](=O)[O-])cc3)C(=O)N(CC(F)(F)F)c3cc(CO)ccc3[C@H]2N1CC12CC3CC(CC(C3)C1)C2 , output reported composite z-score.
Result: 0.556

Query: Input CC(C)NC(=O)[C@@H]1c2ccccc2C(=O)N(Cc2ccccc2)[C@H]1c1ccc(CO)cc1 , output reported composite z-score.
Result: -0.717

Query: Input COc1ccc(C#Cc2ccc3c(c2)[C@]2(C(=O)N3)[C@H](C(=O)NC[C@H](O)c3ccccc3)[C@H]3C(=O)O[C@H](c4ccccc4)[C@H](c4ccccc4)N3[C@@H]2c2ccccc2OCCO)cc1 , output reported composite z-score.
Result: 1.14

Query: Input C=CCC(OC(C)=O)[C@@H]1[C@@H](N(Cc2ccc(-c3ccccc3)cc2)C(=O)Cc2ccc(F)cc2)c2cc(OCCCO)ccc2N1C(=O)c1ccc2ccccc2n1 (some centres undefined) , output reported composite z-score.
Result: -0.526

Query: Input Cc1ccc(S[C@]2(C(=O)NCC(C)C)CC(=O)N(Cc3ccccc3Cl)[C@@H]2c2ccc(CO)cc2)cc1 , output reported composite z-score.
Result: -1.88

Query: Input COc1c(C)cc(-c2cc3c(c(-c4ccc(Oc5ccccc5)cc4)n2)[Si](C(C)C)(C(C)C)OC3)cc1C , output reported composite z-score.
Result: -0.52

Query: Input CCCCC=C[C@@H](NC(=O)c1cccs1)c1ccccc1 , output reported composite z-score.
Result: 0.499

Query: Input N#Cc1ccc(NN2C(C(O)C3CCCCC3)C=CC3C(=O)N(c4ccccc4)C(=O)C32)cc1 (centres undefined) , output reported composite z-score.
Result: 1.21

Query: Input C=C(CCCC)C(=O)CC[C@H](OC(=O)c1cccnc1)c1cccc(OCCO)c1 , output reported composite z-score.
Result: -0.106

Query: Input COCCOC(=O)N1C(=O)[C@@]2(c3cc(C#CCCO)ccc31)[C@H](C(=O)NC[C@H](O)c1ccccc1)[C@H]1C(=O)O[C@H](c3ccccc3)[C@H](c3ccccc3)N1[C@@H]2c1ccc(O)cc1 , output reported composite z-score.
Result: 1.09

Query: Input CCCCC(CC)C(O)C1C=CC2C(=O)N(c3ccccc3)C(=O)C2N1Nc1ccccc1 (centres undefined) , output reported composite z-score.
Result: 0.964

Query: Input CC(C)N1CC=CC23O[C@@H]4C=CCOC(=O)[C@@H]4[C@H]2C(=O)N(CCO)[C@@H]3C1=O (some centres undefined) , output reported composite z-score.
Result: -0.329

Query: Input CN(C)C(=O)[C@]1(CCC(=O)OC(C)(C)C)N=C(c2ccc(OCCCO)cc2)O[C@@H]1c1ccccc1N=[N+]=[N-] , output reported composite z-score.
Result: 0.858

Query: Input COC(=O)[C@@]1(Cc2ccccc2)[C@H]2c3cc(C(=O)N(C)C)n(Cc4c(-c5ccccc5)noc4C)c3C[C@H]2CN1C(=O)c1ccccc1 , output reported composite z-score.
Result: 0.564

Query: Input Cc1c(NC(=O)CC#N)c(=O)n(-c2ccccc2)n1C , output reported composite z-score.
Result: 0.0636

Query: Input C=CC[C@@]1(C(=O)O)N=C(c2ccc(OCCCO)cc2)O[C@@H]1c1ccccc1N=[N+]=[N-] , output reported composite z-score.
Result: 0.247

Query: Input CCOC(=O)C1=CC[C@@H](c2ccccc2)N(S(=O)(=O)c2ccc(C)cc2)[C@H]1C(=O)OCC , output reported composite z-score.
Result: -0.515

Query: Input Cc1ccc([C@H]2[C@H](C(=O)O)[C@H](Sc3ccccc3)[C@@H](C(C)C)N2S(=O)(=O)c2ccc(C)cc2)cc1 , output reported composite z-score.
Result: 1.09

Query: Input CC(c1ccccc1)C(O)C1C=CC2C(=O)NC(=O)C2N1Nc1ccccn1 (centres undefined) , output reported composite z-score.
Result: 0.901

Query: Input COCCOC(=O)N1C(=O)[C@@]2(c3cc(C#CC4=CCCCC4)ccc31)[C@H](C(=O)NC[C@H](O)c1ccccc1)[C@H]1C(=O)O[C@H](c3ccccc3)[C@H](c3ccccc3)N1[C@@H]2c1ccc(O)cc1 , output reported composite z-score.
Result: 1

Query: Input CC(C)=CCCC(C)=CC(O)C1C=CC2C(=O)N(c3ccccc3)C(=O)C2N1Nc1ccccc1 (centres undefined) , output reported composite z-score.
Result: 1.14

Query: Input O=C1O[C@@H](c2ccccc2)[C@@H](c2ccccc2)N2[C@@H](c3ccccc3OCCO)[C@]3(C(=O)Nc4ccc(C#CC5(O)CCCCCC5)cc43)[C@@H](C(=O)Nc3nc4ccccc4s3)[C@H]12 , output reported composite z-score.
Result: 0.723

Query: Input C=C(COC)C(=O)CC[C@@H](OC(=O)c1cccnc1)c1ccc(CO)o1 , output reported composite z-score.
Result: 0.341

Query: Input COCCOC(=O)N1C(=O)[C@@]2(c3cc(C#CCCO)ccc31)[C@H](c1ccc(O)cc1)N1[C@H](c3ccccc3)[C@H](c3ccccc3)OC(=O)[C@H]1[C@@H]2C(N)=O , output reported composite z-score.
Result: 0.59

Query: Input CCCCCN1CC=CC23O[C@@H]4/C=C\CCC(C)OC(=O)C4[C@H]2C(=O)N(CCCCCO)[C@@H]3C1=O (some centres undefined) , output reported composite z-score.
Result: -0.541

Query: Input N#Cc1ccc(NN2C(C(O)c3cccs3)C=CC3C(=O)N(c4ccccc4)C(=O)C32)cc1 (centres undefined) , output reported composite z-score.
Result: 1.02

Query: Input CCOC(=O)C[C@H]1[C@H](OC(=O)c2ccc(C(=O)c3ccccc3)cc2)[C@@H](NC(=O)C2CCCCC2)c2cc(OCCCO)ccc2N1C(=O)c1ccccc1 , output reported composite z-score.
Result: 0.799

Query: Input COc1ccc(CCN2C(=O)[C@@]3(Cc4ccccc42)c2ccccc2C(=O)N(Cc2ccccc2Cl)[C@H]3c2ccc(CO)cc2)cc1 , output reported composite z-score.
Result: -0.199
